- experiment-description: folding stability dG unfold (combined trypsin and chymotrypsin); higher = more stable

construct-sequence	folding stability dG unfold [kcal/mol]
SAGGSAGGSKPVLVKVERKEVEVPLPDGTPGKVFVVKVTVLGENEPLAEKTYLFASEEEAKESSAGGSAGGS [r12_461_TrMRF]	0.595
SAGGSAKIKIPKSYTAEILDASYDPETKTVTVKIKLFGKPATATIYPDGTVEIDLPNGKKITIPVGSAGGSA [r15_111_TrMRF]	2.27
SAGGSAMTYTITLKTPGSQSLELSLDEKLKLLSQTIDPNTGVTTLTLEGDPEEAKKLEQEIKEKLASAGGSA [r15_662_JUSTAS]	1.56
SAGGPDWKTVEVEIQVKDPEDRPEAIEEAEEWAQELAENNPGYKIKGVDVEIWPHNGWYQIRIPITVESAGG [r13_305_TrROS]	0.79
SAGGSAGGSAPVLVLETESGVKFETLSLGPGPGALALIVTPDKPALALINLDDPNNIKILASAGGSAGGSAG [r3_450_TrMRF]	1.18
SAGGSAGGGGGFRVKAEVKHGGKEYPMEILIDPSEGNINIQMPNGKSITLPLNDVKIDEVEPVNSAGGSAGG [r6_185_TrROS]	0.101
SAGGSAMVDKTMTEEEARAFAEASGDPRVTVEPVENPNNDPNAPKKWRITVDGSGTPGSTILFTSPSAGGSA [r15_428_JUSTAS]	-0.55

Reference for the values: the supplement of paper PMC12764529
